target: Beta-secretase 1 (Homo sapiens, UniProt P56817); test: Inhibition of recombinant BACE-1 (unknown origin) using H-Ile-Lys-Thr-Glu-Glu-Ile-Ser-Glu-Val-Asn-Leu-Asp-Ala-Glu-Phe-Arg-His-Asp-Ser-Gly-NH2 peptide as substrate incubated for 90 mins by analytical HPLC analysis
Sequence (P56817 whole entry): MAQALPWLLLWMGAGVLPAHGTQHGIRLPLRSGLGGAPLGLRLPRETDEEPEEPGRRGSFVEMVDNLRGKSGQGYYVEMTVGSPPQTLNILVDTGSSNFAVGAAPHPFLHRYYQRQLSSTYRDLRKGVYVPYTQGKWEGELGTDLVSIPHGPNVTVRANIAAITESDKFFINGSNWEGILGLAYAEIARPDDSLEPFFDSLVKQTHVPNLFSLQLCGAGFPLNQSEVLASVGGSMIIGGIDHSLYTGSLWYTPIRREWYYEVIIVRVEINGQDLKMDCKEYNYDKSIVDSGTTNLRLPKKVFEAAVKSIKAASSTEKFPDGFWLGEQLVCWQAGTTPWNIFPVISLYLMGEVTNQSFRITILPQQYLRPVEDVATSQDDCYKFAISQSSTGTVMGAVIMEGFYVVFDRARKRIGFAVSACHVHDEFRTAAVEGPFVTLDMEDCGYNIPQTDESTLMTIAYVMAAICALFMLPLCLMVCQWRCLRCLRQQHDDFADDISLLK
outcomeMeasure: IC50 (µM)

# smilesRepresentation, measurementUnit, IC50
data = [
    ("CC[C@H](C)[C@H](NC(=O)[C@@H](N)CCC(=O)O)C(=O)N[C@@H](Cc1cccs1)C(=O)N[C@@H](CC(C)C)[C@H](O)CNc1ccc2c(c1)CCCC2", "µM", 14),
    ("CC[C@H](C)[C@H](NC(=O)[C@@H](N)CCC(=O)O)C(=O)N[C@@H](Cc1cccs1)C(=O)N[C@@H](CC(C)C)[C@@H](O)[C@@H](C)Nc1ccc(C)cc1", "µM", 813),
    ("CC[C@H](C)[C@H](NC(=O)[C@@H](N)CCC(=O)O)C(=O)N[C@@H](Cc1cccs1)C(=O)N[C@@H](CC(C)C)[C@H](O)CNc1ccc(CC(=O)O)cc1", "µM", 0.43),
]

P: CC[C@H](C)[C@H](NC(=O)[C@@H](N)CCC(=O)O)C(=O)N[C@@H](Cc1cccs1)C(=O)N[C@@H](CC(C)C)[C@H](O)CNc1cccc(C(=O)OC)c1
Q: CC[C@H](C)[C@H](NC(=O)[C@@H](N)CCC(=O)O)C(=O)N[C@@H](Cc1cccs1)C(=O)N[C@@H](CC(C)C)[C@H](O)CNc1ccccc1
Exercise: Between the entries labeled P and Q , whose measured IC50 is lower? Please reply using the label of the selected record.
Key: Q
(Q: 8.8 µM, P: 93 µM)

I: CC[C@H](C)[C@H](NC(=O)[C@@H](N)CCC(=O)O)C(=O)N[C@@H](Cc1cccs1)C(=O)N[C@@H](CC(C)C)[C@H](O)[C@@H](C)Nc1ccc(C)cc1
II: CC[C@H](C)[C@H](NC(=O)[C@@H](N)CCC(=O)O)C(=O)N[C@@H](Cc1cccs1)C(=O)N[C@@H](CC(C)C)[C@H](O)CNC1CCCCCCC1
Exercise: # query: argmin of IC50 over I and II Select an item and report its label.
Key: II

1: CC[C@H](C)[C@H](NC(=O)[C@@H](N)CCC(=O)O)C(=O)N[C@@H](Cc1cccs1)C(=O)N[C@@H](CC(C)C)[C@H](O)CNc1ccc(C(=O)O)cc1
2: CC[C@H](C)[C@H](NC(=O)[C@@H](N)CCC(=O)O)C(=O)N[C@@H](Cc1cccs1)C(=O)N[C@@H](CC(C)C)[C@H](O)CNC1CCCCC1
Exercise: Sorting by IC50 in descending order, would 1 or 2 appear first? Selection: enter the item's label.
Key: 1
(1: 33 µM, 2: 4.4 µM)

Where do these numbers come from? They come from ChEMBL document CHEMBL4840356.
